The reported measurements were obtained from patent US20260151494A1.

assaySystem: T1, apical domain of human CD71 (human, UniProt P02786 189-383, limits assumed)
T1 construct: domain: apical domain; Screen 4 panned on human apical domains, the ELISA text says only 'apical domain'
T1 sequence (P02786 189-383 limits assumed): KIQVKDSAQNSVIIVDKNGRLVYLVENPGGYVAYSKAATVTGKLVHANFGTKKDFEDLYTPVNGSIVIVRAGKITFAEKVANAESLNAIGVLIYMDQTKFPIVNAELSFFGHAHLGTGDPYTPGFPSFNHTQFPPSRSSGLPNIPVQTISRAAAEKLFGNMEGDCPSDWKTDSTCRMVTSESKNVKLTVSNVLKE
experimentalDetails: primary ELISA; also: test concentration or dose not given here
Listed next: entries and their corresponding RLU.
The answer is to be given in RLU; state only the numeric part.

Recorded results for 4 binders are shown here.
CD71-binding FN3 domain of SEQ ID NO: 496 (designed binder) MLPAPKNLVVSRVTEDSARLSWTAPDAAFDSFFIGYLEPQPPGEAIILWVPGSERSYDLTGLKPGTEYNVTIQGVKGGFPSVPLIAQFTT    5.66e+06
CD71-binding FN3 domain of SEQ ID NO: 477 (designed binder) MLPAPKNLVVSRVTEDSARLSWTAPDAAFDSFEIAYFETCRTGEAIVLTVPGSERSYDLTGLKPGTEYGVSIYGVKGGAHSGPLSAIFTT    2.4e+06
CD71-binding FN3 domain of SEQ ID NO: 451 (designed binder) MLPAPKNLVVSRVTEDSARLSWTAPDAAFDSFFIGYLEPQPPGEAIGLLVPGSERSYDLTGLKPGTEYNVTIQGVKGGFPSIPLVADFTT    6.08e+06
CD71-binding FN3 domain of SEQ ID NO: 522 (designed binder) MLPAPKNLVVSRVTEDSARLSWTAPDAAFDSFFIGYLEPQPPGEAITLYVPGSERSYDLNGLKPGTEYNVTIQGVKGGFPSMPLSAIFTT    3.48e+06

## Input Which RLU reading was recorded for the binder CD71-binding FN3 domain of SEQ ID NO: 536 (designed binder) MLPAPKNLVVSRVTEDSARLSWTAPDAAFDSFDIGYTETVSFGEAIVLTVPGSERSYDLTGLKPGTEYIVKILGVKGGFASFPLSAIFTT ?
## Output 3.26e+06
